Provenance of the data: paper doi:10.1101/2024.08.19.608619

experimental_system: SARS-CoV-2 nsp3-mac1 (Severe acute respiratory syndrome coronavirus 2, UniProt P0DTD1)
test_protocol: biochemical
Assay type: biochemical
condition_context: SARS-CoV-2 nsp3 macrodomain TR-FRET single point; concentration 100.0 uM; n=2
Kindly state perc_inhibition_mean for each of the entries shown.
Reply numerically in %, unit not repeated.

# return recorded perc_inhibition_mean for input `O=C(NCc1nc2cccnc2[nH]1)c1cnc2nc[nH]c(=O)c2c1`
7.034

# return recorded perc_inhibition_mean for input `C(=C1CCCCC1)c1ncnc2[nH]ccc12`
3.464

# return recorded perc_inhibition_mean for input `O=C(Nc1cnc2[nH]ncc2c1)c1ccncc1Cl`
2.961

# return recorded perc_inhibition_mean for input `Oc1cc(CNc2ncnc3[nH]cnc23)ccn1`
-3.73

# return recorded perc_inhibition_mean for input `O=c1[nH]cnc2[nH]cc(-c3ccoc3)c12`
-13.824

====

test_protocol: in vitro
Parameters: Cytotoxicity in iPSC-derived pneumocytes, CC50
condition_context: human, ipsc-derived pneumocytes; ASAP-0008327-001=ASAP-0011428-001; read-out: 50.0
reported_metric: CC50

# return recorded CC50 for input CC(C)[C@H](Nc1ncnc2[nH]c(-c3cnn(CC(N)=O)c3)cc12)c1ccc2c(c1)S(=O)(=O)CCC2 (single isomer, unassigned) [ASAP-0011428]
> 50 µM

====

test_protocol: in vitro
condition_context: human, hela-ace2 cells, 50.0
Kindly state CC50 at 24 h for each of the entries shown.

# return recorded CC50 at 24 h for input CC(C)[C@@H](Nc1ncnc2[nH]c(-c3cnn(C)c3C#N)cc12)c1ccc2c(c1)S(=O)(=O)CCC2 (single isomer, unassigned)
> 20 µM

# return recorded CC50 at 24 h for input `CNC(=O)c1cc2c(N[C@@H](c3ccc4c(c3)OCCO4)C(C)C)ncnc2[nH]1`
> 50 µM

# return recorded CC50 at 24 h for input `CC(C)(C)[C@@H](Nc1ncnc2[nH]c(-c3cnn(CC(N)=O)c3)cc12)c1ccc2c(n1)OCCO2`
> 20 µM

# return recorded CC50 at 24 h for input CC(C)(C)[C@H](Nc1ncnc2[nH]c(-c3cnn(CC(N)=O)c3)cc12)c1ccc2c(c1)OCCO2 (single isomer, unassigned)
> 20 µM

====

Kindly state perc_inhibition (% inhibition of the binding of a ligand specific for each target) for each of the entries shown.
experimental_system: CB2 (h) (Homo sapiens, UniProt P34972)
Construct: purchased Eurofins Cerep (SafetyScreen44), recognised from the panel format
Sequence (P34972 whole entry): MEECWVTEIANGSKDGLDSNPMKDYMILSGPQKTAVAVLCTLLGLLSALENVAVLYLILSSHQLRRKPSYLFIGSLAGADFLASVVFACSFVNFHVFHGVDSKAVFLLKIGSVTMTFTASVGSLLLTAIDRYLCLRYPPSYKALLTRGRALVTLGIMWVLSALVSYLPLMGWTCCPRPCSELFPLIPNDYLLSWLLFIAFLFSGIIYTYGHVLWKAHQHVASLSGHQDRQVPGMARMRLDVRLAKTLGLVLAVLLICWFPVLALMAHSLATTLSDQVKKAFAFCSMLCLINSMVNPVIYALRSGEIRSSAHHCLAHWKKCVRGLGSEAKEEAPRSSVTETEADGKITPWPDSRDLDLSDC
test_protocol: In vitro CEREP profiling, CB2 (h) (agonist radioligand)
Type: binding
condition_context: test compound 10 uM
Source text: Supplement media-1.zip/Safety_Panel_Profile.csv, table | column: perc_inhibition
Reply numerically in %, unit not repeated.

# assay system CB2 (h) (Homo sapiens, UniProt P34972): give perc_inhibition (% inhibition of the binding of a ligand specific for each target) of CNCc1cc(-c2cc3c(N[C@@H](c4ccc5c(c4)S(=O)(=O)CCC5)C(C)C)ncnc3[nH]2)co1 [ASAP-0011176]
-8

# assay system CB2 (h) (Homo sapiens, UniProt P34972): give perc_inhibition (% inhibition of the binding of a ligand specific for each target) of CC(C)[C@@H](Nc1ncnc2[nH]c(-c3cnn(C)c3C#N)cc12)c1ccc2c(n1)OCCO2 [ASAP-0010716]
16

# assay system CB2 (h) (Homo sapiens, UniProt P34972): give perc_inhibition (% inhibition of the binding of a ligand specific for each target) of Cn1ncc(-c2cc3c(N[C@@H](c4ccc5c(n4)OCCO5)C(C)(C)C)ncnc3[nH]2)c1C#N [ASAP-0011221]
31

====

test_protocol: Vero E6/TMPRSS2 cytotoxicity with P-gp inhibitor
Format: cell-based
condition_context: African green monkey, Vero E6/TMPRSS2 cells, with P-gp inhibitor (name and concentration not stated)
reported_metric: CC50

# return recorded CC50 for input Cc1nn(C)cc1-c1cc2c(NC(c3ccc4c(c3)S(=O)(=O)CCC4)C(C)C)ncnc2[nH]1 (centres unmarked)
> 5 µM

# return recorded CC50 for input CC(C)C(Nc1ncnc2[nH]c(C(=O)NC3CCN(C)C3)cc12)c1ccc2c(c1)S(=O)(=O)CCC2 (centres unmarked)
> 5 µM

====

Kindly state pIC50 for each of the entries shown.
Tested on: CYP
test_protocol: CYP inhibition
Assay type: in vitro ADME
condition_context: isoform 2C9; In vitro CYP inhibition pooled
Hey, just a heads up that pIC50 is the negative log base 10 of the concentration in molar.

# return recorded pIC50 for input `CC(C)[C@@H](Nc1ncnc2[nH]c(-c3cnn(C)c3C#N)cc12)c1ccc2c(n1)OCCO2`
5.36

# return recorded pIC50 for input `COc1ccc([C@H](Cc2nnn[nH]2)NC(=O)c2ncnc3[nH]ccc23)cc1`
4.51

# return recorded pIC50 for input `CNCc1cc(-c2cc3c(N[C@@H](c4ccc5c(c4)S(=O)(=O)CCC5)C(C)C)ncnc3[nH]2)co1`
5.28

# return recorded pIC50 for input `Cn1ncc(-c2cc3c(N[C@@H](c4ccc5c(n4)OCCO5)C(C)(C)C)ncnc3[nH]2)c1C#N`
4.37

====

Kindly state perc_bound for each of the entries shown.
test_protocol: Protein binding
Type: in vitro ADME
condition_context: In vitro dog plasma protein binding
Reply numerically in %, unit not repeated.

# return recorded perc_bound for input `COc1ccc([C@H](Cc2nnn[nH]2)NC(=O)c2ncnc3[nH]ccc23)cc1`
89.4

# return recorded perc_bound for input `CC(C)[C@@H](Nc1ncnc2[nH]c(-c3cnn(C)c3C#N)cc12)c1ccc2c(n1)OCCO2`
97.1

# return recorded perc_bound for input `CC(C)[C@H](Nc1ncnc2[nH]c(-c3cnn(C)c3C#N)cc12)c1ccc2c(n1)OCCO2`
95.8

# return recorded perc_bound for input `Cn1ncc(-c2cc3c(N[C@@H](c4ccc5c(n4)OCCO5)C(C)(C)C)ncnc3[nH]2)c1C#N`
98.8

# return recorded perc_bound for input CC(C)C(Nc1ncnc2[nH]c(C(=O)NC3CCN(C)C3)cc12)c1ccc2c(c1)S(=O)(=O)CCC2 (centres unmarked)
83.5

# return recorded perc_bound for input `C[C@H](C(=O)O)[C@@H](NC(=O)c1ncnc2[nH]ccc12)c1ccc(Br)cc1`
96.1

# return recorded perc_bound for input `CNCc1cc(-c2cc3c(N[C@@H](c4ccc5c(c4)S(=O)(=O)CCC5)C(C)C)ncnc3[nH]2)co1`
91.2

# return recorded perc_bound for input `CC(C)[C@H](Nc1ncnc2[nH]ccc12)c1ccc2c(c1)S(=O)(=O)CCC2`
85.2

====

experimental_system: hERG (Homo sapiens)
Sequence (Q12809 whole entry): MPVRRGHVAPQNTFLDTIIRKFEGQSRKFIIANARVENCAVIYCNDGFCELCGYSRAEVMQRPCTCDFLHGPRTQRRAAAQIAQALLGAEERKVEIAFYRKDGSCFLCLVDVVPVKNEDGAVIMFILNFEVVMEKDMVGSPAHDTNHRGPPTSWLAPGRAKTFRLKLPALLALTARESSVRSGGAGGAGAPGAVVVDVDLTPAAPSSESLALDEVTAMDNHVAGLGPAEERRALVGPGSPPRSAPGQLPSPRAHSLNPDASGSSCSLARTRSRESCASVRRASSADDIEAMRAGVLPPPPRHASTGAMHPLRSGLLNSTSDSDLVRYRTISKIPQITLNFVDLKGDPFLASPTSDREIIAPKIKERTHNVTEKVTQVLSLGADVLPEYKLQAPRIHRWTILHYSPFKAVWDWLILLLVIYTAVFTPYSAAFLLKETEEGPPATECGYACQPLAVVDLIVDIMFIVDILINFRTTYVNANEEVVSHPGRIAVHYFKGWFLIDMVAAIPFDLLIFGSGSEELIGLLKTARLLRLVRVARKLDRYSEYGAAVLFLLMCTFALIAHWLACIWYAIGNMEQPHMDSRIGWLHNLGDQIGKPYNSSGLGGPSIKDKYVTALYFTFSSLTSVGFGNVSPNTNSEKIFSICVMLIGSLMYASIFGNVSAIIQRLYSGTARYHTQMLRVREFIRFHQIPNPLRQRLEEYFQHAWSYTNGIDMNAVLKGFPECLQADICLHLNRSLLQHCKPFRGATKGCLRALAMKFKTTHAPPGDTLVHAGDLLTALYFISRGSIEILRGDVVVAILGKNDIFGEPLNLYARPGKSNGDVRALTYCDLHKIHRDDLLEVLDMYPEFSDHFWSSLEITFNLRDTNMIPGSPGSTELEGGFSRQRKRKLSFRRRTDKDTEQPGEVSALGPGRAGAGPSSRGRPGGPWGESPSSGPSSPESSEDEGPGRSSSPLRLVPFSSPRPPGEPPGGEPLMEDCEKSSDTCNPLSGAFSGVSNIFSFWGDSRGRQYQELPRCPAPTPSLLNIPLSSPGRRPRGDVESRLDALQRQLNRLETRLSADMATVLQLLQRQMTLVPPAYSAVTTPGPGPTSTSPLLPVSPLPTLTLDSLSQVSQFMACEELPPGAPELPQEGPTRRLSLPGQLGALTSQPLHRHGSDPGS
test_protocol: In vitro hERG cardiotoxocity
condition_context: at top test concentration 30 uM
Text: Supplement media-1.zip/Cardiotoxicity.csv, table | column: ic50; perc_inhibition_top_conc
reported_metric: perc_inhibition_top_conc (%)
Reply numerically in %, unit not repeated.

# return recorded perc_inhibition_top_conc for input `CC(C)[C@H](Nc1ncnc2[nH]ccc12)c1ccc2c(c1)S(=O)(=O)CCC2`
39.0

# return recorded perc_inhibition_top_conc for input `CNCc1cc(-c2cc3c(N[C@@H](c4ccc5c(c4)S(=O)(=O)CCC5)C(C)C)ncnc3[nH]2)co1`
26.0

# return recorded perc_inhibition_top_conc for input `COc1ccc([C@H](Cc2nnn[nH]2)NC(=O)c2ncnc3[nH]ccc23)cc1`
27.0

# return recorded perc_inhibition_top_conc for input `C[C@H](C(=O)O)[C@@H](NC(=O)c1ncnc2[nH]ccc12)c1ccc(Br)cc1`
28.0

====

experimental_system: SARS-CoV-2 nsp3-mac1 (Severe acute respiratory syndrome coronavirus 2)
test_protocol: biochemical
Type: biochemical
condition_context: SARS-CoV-2 nsp3 macrodomain TR-FRET single point; concentration 49.75 uM
reported_metric: perc_inhibition_mean (%)
Reply numerically in %, unit not repeated.

# return recorded perc_inhibition_mean for input `CC(C)[C@@H](Nc1ncnc2[nH]ccc12)c1cccs1`
84.659

# return recorded perc_inhibition_mean for input `CCN1CCN(C(=O)c2cnn3ccc(C4CCN(C(=O)c5ccccc5)CC4)cc23)CC1=O`
-8.634

# return recorded perc_inhibition_mean for input `CC(C)[C@H]1CN(c2ncnc3[nH]ccc23)[C@H]1C(C)C`
0.348

# return recorded perc_inhibition_mean for input `Cn1ncnc1C(=O)N1CCC(c2ccn3ncc(C(=O)N4CCCCC4)c3c2)CC1`
2.38

# return recorded perc_inhibition_mean for input `Cn1cc([C@H]2CSCCN2c2ncnc3[nH]ccc23)cn1`
-6.49

# return recorded perc_inhibition_mean for input `Cc1ccc2ccccc2c1-c1ncnc2[nH]ccc12`
-5.321

# return recorded perc_inhibition_mean for input `Cc1c([C@@H](C)Nc2ncnc3[nH]ccc23)cnn1-c1ccccc1`
28.129

# return recorded perc_inhibition_mean for input `Oc1ccccc1CNc1ncnc2cccnc12`
-1.837

# return recorded perc_inhibition_mean for input `O=C(c1ccccc1)N1CCC(c2ccn3ncc(C(=O)N4CCc5cccnc54)c3c2)CC1`
-4.67

====

reported_metric: IC50 (nM)
Reply numerically in nM, unit not repeated.

# assay system Nsp3-mac1 (Severe acute respiratory syndrome coronavirus 2, UniProt P0DTD1): give IC50 of CC(C)C(Nc1ncnc2[nH]c(C(=O)NC3CCN(C)C3)cc12)c1ccc2c(c1)S(=O)(=O)CCC2 (centres unmarked)
420

# assay system Nsp3-mac1 (Severe acute respiratory syndrome coronavirus 2, UniProt P0DTD1): give IC50 of Cc1nn(C)cc1-c1cc2c(NC(c3ccc4c(c3)S(=O)(=O)CCC4)C(C)C)ncnc2[nH]1 (centres unmarked)
280
